Can you tell me efflux ratio at 120 min, 1 μM for the items I'm about to list?
- Assayed Target: MDR1 (Homo sapiens (Human), UniProt P08183)
- Sequence (P08183 whole entry): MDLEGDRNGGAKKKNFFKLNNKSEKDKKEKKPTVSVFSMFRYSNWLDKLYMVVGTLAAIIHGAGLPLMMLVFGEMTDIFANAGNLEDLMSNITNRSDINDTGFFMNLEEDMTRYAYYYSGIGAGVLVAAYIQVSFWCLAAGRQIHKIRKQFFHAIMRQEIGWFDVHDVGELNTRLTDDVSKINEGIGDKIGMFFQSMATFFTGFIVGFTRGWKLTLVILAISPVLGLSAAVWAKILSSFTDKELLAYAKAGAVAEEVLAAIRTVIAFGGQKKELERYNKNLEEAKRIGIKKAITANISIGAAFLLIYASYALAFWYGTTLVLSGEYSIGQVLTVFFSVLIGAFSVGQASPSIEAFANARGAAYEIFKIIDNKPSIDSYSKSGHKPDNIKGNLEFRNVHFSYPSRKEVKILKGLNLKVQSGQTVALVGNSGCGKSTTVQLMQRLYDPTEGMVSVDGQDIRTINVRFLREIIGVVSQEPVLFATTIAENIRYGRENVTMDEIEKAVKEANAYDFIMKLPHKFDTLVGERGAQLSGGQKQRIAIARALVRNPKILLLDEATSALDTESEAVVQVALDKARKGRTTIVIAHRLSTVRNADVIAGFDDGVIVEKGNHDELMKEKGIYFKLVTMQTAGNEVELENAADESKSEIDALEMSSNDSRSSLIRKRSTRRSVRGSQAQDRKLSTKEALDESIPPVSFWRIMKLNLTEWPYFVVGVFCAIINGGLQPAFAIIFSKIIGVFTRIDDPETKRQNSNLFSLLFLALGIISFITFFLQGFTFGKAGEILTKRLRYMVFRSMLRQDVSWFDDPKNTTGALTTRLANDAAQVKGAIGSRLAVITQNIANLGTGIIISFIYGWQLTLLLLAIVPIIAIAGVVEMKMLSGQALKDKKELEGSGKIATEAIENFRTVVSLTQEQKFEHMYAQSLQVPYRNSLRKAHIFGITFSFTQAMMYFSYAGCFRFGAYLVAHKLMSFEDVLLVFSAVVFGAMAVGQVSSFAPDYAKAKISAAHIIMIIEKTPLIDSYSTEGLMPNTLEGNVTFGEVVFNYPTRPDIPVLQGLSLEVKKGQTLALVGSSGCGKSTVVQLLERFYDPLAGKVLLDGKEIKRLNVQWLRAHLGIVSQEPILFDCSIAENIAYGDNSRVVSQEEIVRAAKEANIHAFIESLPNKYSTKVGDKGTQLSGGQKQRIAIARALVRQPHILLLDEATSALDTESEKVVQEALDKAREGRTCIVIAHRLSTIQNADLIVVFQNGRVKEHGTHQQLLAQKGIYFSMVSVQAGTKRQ
- Experimental Protocol: in vitro
- Condition Details: MDCK-MDR1
Counter-ions that a name gives are not always drawn.
Respond using a number only.

**Q:** Give efflux ratio at 120 min, 1 μM (MDR1 (Homo sapiens (Human), UniProt P08183)) of the following compound: "CC(C)Oc1cc2nc([C@@]34CC[C@@](C)(C3)OC4)cn2cc1C(=O)Nc1ccnn(C2CC2)c1=O"
**A:** 1

**Q:** Give efflux ratio at 120 min, 1 μM (MDR1 (Homo sapiens (Human), UniProt P08183)) of the following compound: CC(C)Oc1nc2nc(C34CCC(C)(C3)OC4)cn2cc1C(=O)Nc1cccn([C@H]2C[C@H]2C)c1=O (stereo in doubt) [Example 187, trifluoroacetate]
**A:** 10.9

**Q:** Give efflux ratio at 120 min, 1 μM (MDR1 (Homo sapiens (Human), UniProt P08183)) of the following compound: CC(C)Oc1cc2nc(C34CCC(C3)OC4)cn2cc1C(=O)Nc1cccn(C2CC2)c1=O (stereo not drawn)
**A:** 7

**Q:** Give efflux ratio at 120 min, 1 μM (MDR1 (Homo sapiens (Human), UniProt P08183)) of the following compound: "C[C@@H](CF)Oc1cc2nc(C34COC(C)(C3)C4)cn2cc1C(=O)Nc1cccn(C2CC2)c1=O"
**A:** 18.2

**Q:** Give efflux ratio at 120 min, 1 μM (MDR1 (Homo sapiens (Human), UniProt P08183)) of the following compound: CC(C)Oc1c(C(=O)Nc2cccn([C@H]3C[C@H]3F)c2=O)cn2cc(C34COC(C)(C3)C4)nc2c1F (single isomer, unassigned)
**A:** 4.9

**Q:** Give efflux ratio at 120 min, 1 μM (MDR1 (Homo sapiens (Human), UniProt P08183)) of the following compound: CC(C)Oc1cc2nc([C@@]34CC[C@@](C)(C3)OC4)cn2cc1C(=O)Nc1cccn([C@@H]2C[C@@H]2C)c1=O [Example 183, trifluoroacetate]
**A:** 2.9

###

- Assayed Target: IRAK4 (Homo sapiens (Human))
- Sequence (Q9NWZ3 whole entry): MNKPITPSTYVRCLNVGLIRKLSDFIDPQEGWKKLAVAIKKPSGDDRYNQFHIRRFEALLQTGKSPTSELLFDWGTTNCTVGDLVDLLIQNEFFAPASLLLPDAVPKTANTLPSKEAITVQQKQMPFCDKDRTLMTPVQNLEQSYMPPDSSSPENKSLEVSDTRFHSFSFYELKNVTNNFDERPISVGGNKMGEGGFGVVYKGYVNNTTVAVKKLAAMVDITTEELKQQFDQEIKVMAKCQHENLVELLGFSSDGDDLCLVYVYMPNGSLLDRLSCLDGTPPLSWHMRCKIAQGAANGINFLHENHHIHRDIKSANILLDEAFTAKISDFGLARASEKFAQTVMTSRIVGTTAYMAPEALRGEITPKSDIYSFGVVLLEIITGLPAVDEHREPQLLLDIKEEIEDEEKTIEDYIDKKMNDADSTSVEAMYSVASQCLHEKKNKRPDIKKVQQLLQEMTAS
pIC50: −log10 of the molar value. Where a name gives a salt, the structure may show the parent alone.
Classification field: enter True for pIC50 values not below 9, False for values below it.

**Q:** Please tell me: is the molecule CC(C)Oc1cc2nc([C@]34CC[C@](C)(C3)OC4)cn2cc1C(=O)Nc1cccn([C@H]2C[C@H]2C)c1=O [Example 180, trifluoroacetate] at or over 9 in terms of pIC50?
**A:** True

**Q:** Please tell me: is the molecule CC12CC(c3cn4cc(C(=O)Nc5cccn([C@@H]6C[C@@H]6F)c5=O)c(OC5CCC5)nc4n3)(CO1)C2 (single isomer, unassigned) at or over 9 in terms of pIC50?
**A:** False

**Q:** Please tell me: is the molecule CC(C)Oc1cc2nc([C@@]34CC[C@@](C)(C3)OC4)cn2cc1C(=O)Nc1cccn([C@@H]2C[C@H]2C)c1=O (single isomer, unassigned) at or over 9 in terms of pIC50?
**A:** True

**Q:** Please tell me: is the molecule CC(C)Oc1c(C(=O)Nc2cccn(C3CC3)c2=O)cn2cc([C@]34CC[C@](C)(C3)OC4)nc2c1F (single isomer, unassigned) at or over 9 in terms of pIC50?
**A:** False

**Q:** Please tell me: is the molecule "CC(C)Oc1cc2nc(C34COC(C)(C3)C4)cn2cc1C(=O)Nc1cccn([C@@H]2C[C@H]2C)c1=O" at or over 9 in terms of pIC50?
**A:** True
